# targetSystem: meprin α (Homo sapiens)
# Construct: Strep-tag; made in house; host or cells: BTI-TN-5B1-4 insect cells (baculovirus, amplified in Sf9)
# Sequence (Q16819 66-746): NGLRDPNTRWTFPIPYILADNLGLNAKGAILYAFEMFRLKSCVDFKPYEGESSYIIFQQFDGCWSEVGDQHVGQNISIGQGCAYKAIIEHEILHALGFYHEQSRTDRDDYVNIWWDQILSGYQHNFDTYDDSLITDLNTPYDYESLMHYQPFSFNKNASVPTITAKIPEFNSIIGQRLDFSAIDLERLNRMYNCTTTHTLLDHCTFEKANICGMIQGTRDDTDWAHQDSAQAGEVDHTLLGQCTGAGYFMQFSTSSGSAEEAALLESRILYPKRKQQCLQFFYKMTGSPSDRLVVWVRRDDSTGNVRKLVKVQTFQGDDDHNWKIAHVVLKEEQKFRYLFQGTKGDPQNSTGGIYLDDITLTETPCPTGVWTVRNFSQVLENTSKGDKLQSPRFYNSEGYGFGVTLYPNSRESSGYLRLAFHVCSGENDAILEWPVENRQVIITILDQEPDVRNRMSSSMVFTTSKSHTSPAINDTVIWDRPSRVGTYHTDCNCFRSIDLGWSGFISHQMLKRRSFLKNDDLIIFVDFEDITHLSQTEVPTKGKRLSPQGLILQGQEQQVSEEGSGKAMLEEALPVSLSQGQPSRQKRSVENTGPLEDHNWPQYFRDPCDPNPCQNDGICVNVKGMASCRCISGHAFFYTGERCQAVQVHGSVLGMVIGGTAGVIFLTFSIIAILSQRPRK
# assayProtocol: Meprin α assay in a 384-well plate (fluorogenic substrate Mca-YVADAPK-K(Dnp))
# Assay type: biochemical
reportedEndpoint: IC50 (nM)
Give the value in nM but do not write nM after it.

Value sought: IC50, system meprin α (Homo sapiens), item O=C(CSc1nnc(NC(=O)COc2ccccc2)s1)NO [SR19848] . Result: 217

###

# targetSystem: MMP14 (Homo sapiens)
reportedEndpoint: IC50

Value sought: IC50, system MMP14 (Homo sapiens), item CCCCC[C@H](CC(=O)NO)C(=O)N[C@H](C(=O)N1CCC[C@H]1CO)C(C)C [Actinonin, actinonin, reference compound] . Result: > 1000 µM

###

Measured pIC50, listed per entry.
# targetSystem: human meprin β (Homo sapiens, UniProt Q16820)
# Construct: His-tag; made in house; host or cells: BTI-TN-5B1-4 insect cells (baculovirus, amplified in Sf9)
# Sequence (Q16820 62-701): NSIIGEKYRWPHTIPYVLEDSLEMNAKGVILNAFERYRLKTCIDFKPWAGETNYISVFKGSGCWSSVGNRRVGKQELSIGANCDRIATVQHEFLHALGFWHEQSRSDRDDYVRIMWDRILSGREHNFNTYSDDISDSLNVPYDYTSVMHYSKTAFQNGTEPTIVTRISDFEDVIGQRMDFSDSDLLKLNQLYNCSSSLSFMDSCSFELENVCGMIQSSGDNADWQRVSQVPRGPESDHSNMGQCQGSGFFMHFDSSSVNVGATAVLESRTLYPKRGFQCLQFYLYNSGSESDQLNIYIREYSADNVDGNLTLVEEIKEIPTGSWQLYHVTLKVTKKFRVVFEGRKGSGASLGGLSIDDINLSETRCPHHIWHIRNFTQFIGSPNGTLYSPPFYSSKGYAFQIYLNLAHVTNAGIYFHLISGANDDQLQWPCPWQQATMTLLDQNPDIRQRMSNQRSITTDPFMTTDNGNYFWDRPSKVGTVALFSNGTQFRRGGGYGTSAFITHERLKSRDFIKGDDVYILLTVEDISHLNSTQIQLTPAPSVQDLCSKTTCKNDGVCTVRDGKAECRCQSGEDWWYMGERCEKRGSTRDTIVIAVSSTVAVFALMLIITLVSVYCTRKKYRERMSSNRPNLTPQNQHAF
# assayProtocol: Meprin β assay in a 384-well plate (fluorogenic substrate Mca-EDEDED-K(Dnp))
# Type: biochemical
# studyConditions: triplicate, ± SD
pIC50: −log10 of the molar value.

Previously resolved entries follow.
Value sought: pIC50, system human meprin β (Homo sapiens, UniProt Q16820), item "COc1cc(OC)nc(SCc2nnc(SCC(=O)NO)n2-c2cccnc2)n1" . Result: < 4.00

Value sought: pIC50, system human meprin β (Homo sapiens, UniProt Q16820), item "COc1ccc(-n2c(CSc3nc(OC)cc(OC)n3)nnc2SCC(=O)NO)cc1" . Result: < 4.00

More entries:
Value sought: pIC50, system human meprin β (Homo sapiens, UniProt Q16820), item "COc1cc(OC)nc(SCc2nnc(SCC(=O)NO)n2-c2ccc(Br)cc2)n1" . Result: < 4.00

Value sought: pIC50, system human meprin β (Homo sapiens, UniProt Q16820), item "COc1cc(OC)nc(SCc2nnc(SCC(=O)NO)n2-c2cccc(C)c2)n1" . Result: < 4.00
